Assay: A CellTox Green Cytotoxicity Assay to monitor cytotoxicity in HepG2 cells - 32 hour (AID 1224883); further: nearly all actives have a fitted effect of over 50% in size
Conditions: CellTox Green fluorescence; series mostly up to 76.8 µM
From the text: National Center for Advancing Translational Sciences [NCATS] NIH Chemical Genomics Center [NCGC] U.S. Environmental Protection Agency [EPA] National Institutes of Environmental Health Sciences [NIEHS] National Toxicology Program [NTP] Cell-based models are critical for drug discovery. […] Viable cells produce no appreciable increases in fluorescence. Therefore, the fluorescence signal produced by the binding interaction with dead cell DNA is proportional to cytotoxicity. […]
Results filed as inconclusive are left out. Activity calls are given as the source filed them. The call rests on the fitted dose curve; in most records, active means well fitted activation curve with a large enough effect in the repeat runs; inconclusive means weak or mixed curves; inactive means flat fitted curve, though single readings scatter.
Just give me one of these, please: active, inactive

Examples with answers:
For CCCCOc1ccc(C(=O)CCN2CCCCC2)cc1 , which call appears in the assay record?
active

For CN(C)CCCN1c2ccccc2CCc2ccccc21 , which call appears in the assay record?
active

For CC1=CP(=O)(c2ccccc2)CC1 (centres undefined) , which call appears in the assay record?
inactive

For C=CC(=O)OCCN(CC)CC , which call appears in the assay record?
inactive

For CCC1CCCCC1 , which call appears in the assay record?
inactive

---
For CNCC[C@H](Oc1cccc2ccccc12)c1cccs1 , which call appears in the assay record?
active

For C=CC(C)(CCC=C(C)C)OC(=O)/C=C/c1ccccc1 (centres undefined) , which call appears in the assay record?
active

For Nc1cc(Cl)c([N+](=O)[O-])cc1O , which call appears in the assay record?
inactive

For Cc1cccc(N(C)C)c1 , which call appears in the assay record?
inactive

For CCCCNc1c(C(=O)OCC)c(C)nc2c1cnn2CC , which call appears in the assay record?
inactive

For OCCC(O)CO (centres undefined) , which call appears in the assay record?
inactive

For CCC1(c2cnc[nH]2)Cc2ccccc2C1 , which call appears in the assay record?
inactive

For CCc1c(C(=O)O)c(=O)cnn1-c1ccc(Cl)cc1 , which call appears in the assay record?
inactive

For C/C=C/C(=O)C1=C(C)CCCC1(C)C , which call appears in the assay record?
inactive
